Measured values drawn from patent US8889667B2 for this set.

# target-desc: PKM2 (Homo sapiens)
# Sequence (P14618 whole entry): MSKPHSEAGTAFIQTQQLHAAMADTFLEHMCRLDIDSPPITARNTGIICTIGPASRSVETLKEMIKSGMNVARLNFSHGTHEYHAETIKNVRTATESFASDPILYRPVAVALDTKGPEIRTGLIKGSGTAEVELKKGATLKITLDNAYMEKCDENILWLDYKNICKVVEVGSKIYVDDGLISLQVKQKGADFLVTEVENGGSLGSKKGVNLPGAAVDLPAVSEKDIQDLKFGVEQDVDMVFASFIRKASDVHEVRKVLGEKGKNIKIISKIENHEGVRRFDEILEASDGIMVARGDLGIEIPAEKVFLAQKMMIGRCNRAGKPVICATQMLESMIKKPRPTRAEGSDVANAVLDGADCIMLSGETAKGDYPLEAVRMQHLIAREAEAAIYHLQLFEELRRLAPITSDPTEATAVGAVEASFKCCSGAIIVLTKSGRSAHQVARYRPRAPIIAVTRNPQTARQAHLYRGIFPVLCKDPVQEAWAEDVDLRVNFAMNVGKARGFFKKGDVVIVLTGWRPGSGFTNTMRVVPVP
# assay-text: PKM2 Assay (activation, LDH-coupled, absorbance at 340 nm)
# Format: biochemical
# test-conditions: Table 5
Listing of recorded AC50 by entry.

**Q:** Return reported AC50. Input compound: COc1cc(C(=O)N2CCN(C(=O)Oc3ccccn3)CC2)ccc1NS(=O)(=O)c1cccc2cccnc12 [Compound 315]
**A:** 100 to 500 nM

**Q:** Write down AC50 measured for item CCOC(=O)N1CCN(C(=O)c2ccc(NS(=O)(=O)c3cccc4cccnc34)nc2)CC1 [Compound 446]
**A:** 1000 to 20000 nM

**Q:** Quickly give me recorded AC50 for O=C(c1ccc(NS(=O)(=O)c2cccc3cccnc23)c(OC(F)(F)F)c1)N1CCN(Cc2ccncc2Cl)CC1 [Compound 307]
**A:** 100 to 500 nM

**Q:** Name the recorded AC50 of the item O=C(c1ccc(NS(=O)(=O)c2cccc3cccnc23)cc1)N1CCN(C(=O)c2cocn2)CC1 [Compound 347] in your answer.
**A:** 100 to 500 nM

**Q:** Fill in reported AC50 for this entry: O=C(c1ccc(NS(=O)(=O)c2cccc3cccnc23)cc1)N1CCN(C(c2ccc(F)cc2)C(F)(F)F)CC1 (stereo not shown) [Compound 351]
**A:** < 100 nM

**Q:** Consider the compound O=C(c1ccc(NS(=O)(=O)c2cccc3cccnc23)c(OC(F)(F)F)c1)N1CCN(Cc2ncc[nH]2)CC1 [Compound 380] and give its recorded AC50.
**A:** 100 to 500 nM

**Q:** Please supply the value of reported AC50 for the item O=C(Cc1ccccc1F)N1CCN(C(=O)c2ccc(NS(=O)(=O)c3cccc4cccnc34)c(OC(F)(F)F)c2)CC1 [Compound 361]
**A:** 500 to 1000 nM

---

# key: entry, value: AC50
# target-desc: PKM2 (Homo sapiens)
# assay-text: PKM2 Assay (activation, LDH-coupled, absorbance at 340 nm)
# Type: biochemical
# test-conditions: Table 4

Worked examples, 5 compounds total:
C[C@H]1CN(C(=O)c2ccccn2)CCN1C(=O)c1ccc(NS(=O)(=O)c2cccc3cccnc23)cc1 | 100 to 500 nM
C[C@@H]1CN(CC2CCOC2)CCN1C(=O)c1ccc(NS(=O)(=O)c2cccc3cccnc23)cc1 (some centres unmarked) | 100 to 500 nM
O=C(c1ccc(NS(=O)(=O)c2cccc3cccnc23)cc1)N1C2CCC1CN(Cc1cc(F)cc(F)c1)C2 | 100 to 500 nM
CC1CN(CC2CCCCC2)CC(C)N1C(=O)c1ccc(NS(=O)(=O)c2cccc3cccnc23)cc1 (centres unmarked) | 100 to 500 nM
C[C@@H]1CN(CC2CCC2)CCN1C(=O)c1ccc(NS(=O)(=O)c2cccc3cccnc23)cc1 | < 100 nM

**Q:** Report AC50 for CC1CN(Cc2cc(F)c(F)cc2F)CC(C)N1C(=O)c1ccc(NS(=O)(=O)c2cccc3cccnc23)cc1 (centres unmarked)
**A:** < 100 nM

**Q:** Respond only with AC50 recorded for "C[C@H]1CN(C[C@@H]2CCOC2)CCN1C(=O)c1ccc(NS(=O)(=O)c2cccc3cccnc23)cc1"
**A:** 100 to 500 nM

**Q:** For the compound "CC(C)OC(=O)N1CCN(C(=O)c2ccc(NS(=O)(=O)c3cccc4cccnc34)cc2)[C@@H](C)C1" , give its reported AC50.
**A:** < 100 nM

**Q:** Please look at this compound and report its AC50: C[C@H]1CN(CC2CCOC2)CCN1C(=O)c1ccc(NS(=O)(=O)c2cccc3cccnc23)cc1Cl (some centres unmarked)
**A:** 100 to 500 nM

**Q:** Fill in reported AC50 for this entry: "O=C(c1ccc(NS(=O)(=O)c2cccc3cccnc23)cc1)N1CCN(Cc2ccc(F)cc2)C[C@@H]1c1ccccc1"
**A:** < 100 nM

**Q:** Return the recorded AC50 value; entry: "CC(C)COC(=O)N1[C@H](C)CN(C(=O)c2ccc(NS(=O)(=O)c3cccc4cccnc34)cc2)C[C@@H]1C"
**A:** 100 to 500 nM

**Q:** Supply measured AC50 of CC(c1cc(F)c(F)cc1F)N1CCN(C(=O)c2ccc(NS(=O)(=O)c3cccc4cccnc34)cc2)[C@H](C)C1 (some centres unmarked) in your reply.
**A:** 100 to 500 nM

**Q:** Consider the compound "C[C@@H]1CN(C[C@H]2CCCO2)CCN1C(=O)c1ccc(NS(=O)(=O)c2cccc3cccnc23)cc1" and give its recorded AC50.
**A:** < 100 nM

**Q:** Retrieve AC50 measured for CC(c1cc(F)c(F)cc1F)N1CCN(C(=O)c2ccc(NS(=O)(=O)c3cccc4cccnc34)cc2)[C@@H](C)C1 (some centres unmarked) and print it.
**A:** 100 to 500 nM
